Ref: patent US8912336B2

Molecular target: human mGluR4 (Homo sapiens)
Assay: Potentiation of human mGluR4 in transfected CHO cells, Ca2+-sensitive fluorescent dye, EC20 agonist
Details: values in E-notation, unit inferred, read-out: hEC50
READOUT_TYPE: EC50 (nM)

Worked cases, answers included:
MOLECULE | READOUT_TYPE | UNITS_TEXT | RECORDED_VALUE
O=S(=O)(Cc1ccccc1Cl)c1ccc2[nH]c(-c3cscn3)nc2c1 [Example 13] | EC50 | nM | 1840
O=S(=O)(Cc1ccc(Cl)cc1F)c1ccc2[nH]c(-c3cccc[n+]3O)nc2c1 [Example 18] | EC50 | nM | 272

a. O=S(=O)(Cc1ccccc1F)c1ccc2[nH]c(-c3ccccn3)nc2c1 [Example 4]
b. O=S(=O)(Cc1c(F)cccc1Cl)c1cc2nc(-c3ccccn3)[nH]c2cc1Cl [Example 24]
// query // pick larger EC50 from pair: a vs b Answer by stating the label of the chosen item.
// result a
(a: 330 nM, b: 112 nM)

---

Target: human mGluR4 (Homo sapiens, UniProt Q14833)
Sequence (Q14833 33-912): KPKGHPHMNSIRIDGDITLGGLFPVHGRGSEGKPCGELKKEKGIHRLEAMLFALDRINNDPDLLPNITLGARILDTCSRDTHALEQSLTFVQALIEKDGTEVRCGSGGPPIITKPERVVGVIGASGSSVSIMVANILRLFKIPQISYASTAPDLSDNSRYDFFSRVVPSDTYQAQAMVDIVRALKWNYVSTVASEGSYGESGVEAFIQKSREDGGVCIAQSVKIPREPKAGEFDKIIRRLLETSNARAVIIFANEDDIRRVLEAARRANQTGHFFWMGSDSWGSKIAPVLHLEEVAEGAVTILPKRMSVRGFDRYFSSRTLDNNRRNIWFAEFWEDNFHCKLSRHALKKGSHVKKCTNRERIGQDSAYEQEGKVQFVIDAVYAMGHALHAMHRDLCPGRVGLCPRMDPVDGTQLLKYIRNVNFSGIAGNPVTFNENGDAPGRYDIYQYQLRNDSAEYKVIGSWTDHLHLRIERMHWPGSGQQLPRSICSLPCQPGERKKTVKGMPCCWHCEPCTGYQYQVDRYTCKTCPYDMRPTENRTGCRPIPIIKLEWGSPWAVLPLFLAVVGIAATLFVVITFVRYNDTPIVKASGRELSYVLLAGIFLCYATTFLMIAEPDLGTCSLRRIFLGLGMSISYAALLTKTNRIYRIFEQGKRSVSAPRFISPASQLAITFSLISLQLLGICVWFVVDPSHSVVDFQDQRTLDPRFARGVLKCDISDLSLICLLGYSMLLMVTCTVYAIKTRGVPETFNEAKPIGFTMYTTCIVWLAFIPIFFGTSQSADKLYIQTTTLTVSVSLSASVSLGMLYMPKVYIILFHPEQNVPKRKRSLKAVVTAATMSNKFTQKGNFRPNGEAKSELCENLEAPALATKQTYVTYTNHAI
Experiment: Potentiation of human mGluR4 in transfected CHO cells, Ca2+-sensitive fluorescent dye, EC20 agonist
Details: values in E-notation, unit inferred, read-out: hEC50
pEC50: −log10 of the molar value.
READOUT_TYPE: pEC50

MOLECULE | pEC50
O=S(=O)(Cc1ccc(F)cc1F)c1ccc2[nH]c(-c3ccccn3)nc2c1 | 6.68
O=S(=O)(Cc1ccc(Cl)cc1Cl)c1ccc2[nH]c(-c3ccccn3)nc2c1 | 7.25
O=S(=O)(Cc1cccc(Cl)c1F)c1ccc2[nH]c(-c3cccc[n+]3O)nc2c1 | 5.97
O=S(=O)(Cc1ccc(Cl)cc1Cl)c1cc2nc(-c3ccccn3)[nH]c2cc1Cl | 5.82
O=S(=O)(Cc1ccccc1Cl)c1ccc2[nH]c(-c3ncccc3F)nc2c1 | 6.66
O=C(Nc1ccc(S(=O)(=O)Cc2ccccc2Cl)cc1)c1cccc(Cl)n1 | 5.96
O=C(Nc1ccc(S(=O)(=O)Cc2ccccc2Cl)cc1)c1ccco1 | 6.37
O=S(=O)(Cc1ccc(Cl)cc1F)c1ccc2[nH]c(-c3ccccn3)nc2c1 | 7.08
O=S(=O)(Cc1ccccc1Cl)c1ccc2[nH]c(-c3cccc(Cl)n3)nc2c1 | 7.12
O=S(=O)(Cc1ccccc1Cl)c1cc2nc(-c3ccccn3)[nH]c2cc1F | 6.47

P. O=S(=O)(Cc1cc(F)ccc1F)c1ccc2[nH]c(-c3ccccn3)nc2c1
Q. Clc1ccccc1CSc1ccc2[nH]c(-c3ccccn3)nc2c1
// query // pick larger pEC50 from pair: P vs Q Answer by stating the label of the chosen item.
// result P
(P: 6.36, Q: 5.61)

A. O=S(=O)(Cc1ccccc1Cl)c1ccc2[nH]c(-c3ccccn3)nc2c1
B. O=S(=O)(Cc1ccccc1Cl)c1ccc2[nH]c(-c3nccs3)nc2c1
C. O=C(Nc1ccc(S(=O)(=O)Cc2ccccc2Cl)cc1)c1ncccc1F
D. O=S(=O)(Cc1c(F)cccc1F)c1ccc2[nH]c(-c3ccccn3)nc2c1
E. Fc1ccccc1CSc1ccc2[nH]c(-c3ccccn3)nc2c1
// query Arrange these molecules by their pEC50, starting with the largest number. Kindly provide the labels arranged according to the requested ordering.
// result D, A, C, B, E
(D: 6.81, A: 6.38, C: 6.14, B: 5.84, E: 5.61)

P. O=S(=O)(Cc1ccc(Cl)cc1F)c1cc2nc(-c3ccccn3)[nH]c2cc1Cl
Q. O=S(=O)(Cc1ccccc1Cl)c1ccc2[nH]c(-c3cccc(F)n3)nc2c1
// query // pick larger pEC50 from pair: P vs Q Answer by stating the label of the chosen item.
// result P
(P: 6.35, Q: 6.03)

1. [O-][S+](Cc1ccccc1Cl)c1cc2nc(-c3ccccn3)[nH]c2cc1Cl (stereo not shown)
2. O=S(=O)(Cc1c(F)cccc1Cl)c1ccc2[nH]c(-c3ccccn3)nc2c1
// query // pick larger pEC50 from pair: 1 vs 2 Answer by stating the label of the chosen item.
// result 2
(2: 7.26, 1: 5.62)
